Target: 1b (BK) NS5BΔ21 (Hepatitis C virus genotype 1b)
Construct: 100 nM, 1b (BK) NS5BΔ21
Sequence (P26663 2420-2989, stated change not applied): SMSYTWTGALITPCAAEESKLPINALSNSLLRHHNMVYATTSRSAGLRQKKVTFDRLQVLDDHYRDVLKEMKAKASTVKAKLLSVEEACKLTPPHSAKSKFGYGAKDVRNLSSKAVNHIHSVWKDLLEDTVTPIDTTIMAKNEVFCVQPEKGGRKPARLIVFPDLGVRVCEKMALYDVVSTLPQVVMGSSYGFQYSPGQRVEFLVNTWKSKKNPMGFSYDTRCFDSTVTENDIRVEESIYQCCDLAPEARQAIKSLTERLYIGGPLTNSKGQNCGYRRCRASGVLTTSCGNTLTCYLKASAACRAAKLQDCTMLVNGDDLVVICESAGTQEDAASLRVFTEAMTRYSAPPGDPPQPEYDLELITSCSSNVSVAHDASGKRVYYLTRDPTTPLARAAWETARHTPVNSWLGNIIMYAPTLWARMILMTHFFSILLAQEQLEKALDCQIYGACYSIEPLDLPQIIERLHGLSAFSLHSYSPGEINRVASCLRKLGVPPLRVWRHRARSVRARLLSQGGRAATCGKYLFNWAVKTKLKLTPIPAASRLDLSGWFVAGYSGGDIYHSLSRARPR
Test: HCV Polymerase Inhibition Assay
Type: biochemical
Conditions: NS5B G1b (IC50 μM), genotype 1b polymerase
Measured log10(IC50), listed per entry for reference.
Scale type: logarithmic (base 10). Underlying IC50 unit: µM.

Sample answers from the record:
                                   molecule  test_readout  value
0  CNC(=O)c1c2cc(C3CC3)c(N(CCC3COC3)S(C)(=O)=O)cc2nn1-c1ccc(Cl)cn1   log10(IC50)  -0.88
1  CCN(c1cc2nn(-c3ccc(C)cn3)c(C(=O)NC)c2cc1C1CC1)S(C)(=O)=O   log10(IC50)  -0.55

Look up log10(IC50) with 1b (BK) NS5BΔ21 (Hepatitis C virus genotype 1b) for this molecule: CNC(=O)c1c2cc(C3CC3)c(N(C)S(C)(=O)=O)cc2nn1-c1ccc(Cl)cn1
-1.27

Any idea what log10(IC50) came out for CNC(=O)c1c2cc(C3CC3)c(N(CCC3(OC)COC3)S(C)(=O)=O)cc2nn1-c1ccc(C)cn1 on 1b (BK) NS5BΔ21 (Hepatitis C virus genotype 1b)?
-0.73

Give the reported log10(IC50) for CNC(=O)c1c2cc(C3CC3)c(N(CCC3(C)COC3)S(C)(=O)=O)cc2nn1-c1ccc(C)cn1 (system: 1b (BK) NS5BΔ21 (Hepatitis C virus genotype 1b)).
-0.40

Quick check: log10(IC50) on 1b (BK) NS5BΔ21 (Hepatitis C virus genotype 1b), item CCN(c1cc2nn(-c3ccc(C)nc3)c(C(=O)NC)c2cc1C1CC1)S(C)(=O)=O [Compound A, reference compound] ?
0.53

Which log10(IC50) is reported with 1b (BK) NS5BΔ21 (Hepatitis C virus genotype 1b) for this entry: CNC(=O)c1c2cc(C3CC3)c(N(CCC3COC3)S(C)(=O)=O)cc2nn1-c1ccc(C)cn1 ?
-0.41

* * *

Each record here notes measured EC50.
Test system: genotype 1b (Con 1) subgenomic replicon cell line
Experiment: HCV replicon assay, genotype 1b (Renilla luciferase)
Assay type: cell-based
Settings: Hepatitis C virus; genotype 1b replicon, 72 hours; read-out: genotype 1b EC50 (μM) range

>>> df
                                   compound                           measured_target           value
0  CNC(=O)c1c2cc(C3CC3)c(N(CCO)S(C)(=O)=O)cc2nn1-c1ccc(C)cn1 [Compound 2]  genotype 1b (Con 1) subgenomic replicon cell line  0.1 to 0.49 µM
1  CNC(=O)c1c2cc(C3CC3)c(N(C)S(C)(=O)=O)cc2nn1-c1ccc(C)cn1 [Compound 6]  genotype 1b (Con 1) subgenomic replicon cell line        < 0.1 µM
2  CNC(=O)c1c2cc(C3CC3)c(N(CCC3(OC)COC3)S(C)(=O)=O)cc2nn1-c1ccc(C)cn1 [Compound 18]  genotype 1b (Con 1) subgenomic replicon cell line        < 0.1 µM

Give the measured EC50 of CNC(=O)c1c2cc(C3CC3)c(N(CCC3COC3)S(C)(=O)=O)cc2nn1-c1ccc(Cl)cn1 [Compound 19] .
< 0.1 µM

# get_value(readout='EC50', item= CNC(=O)c1c2cc(C3CC3)c(N(C)S(C)(=O)=O)cc2nn1-c1ncc(C)s1 [Compound 13] )
0.1 to 0.49 µM

Tell me the measured EC50 of CNC(=O)c1c2cc(C3CC3)c(N(CCC3CN(C(C)=O)C3)S(C)(=O)=O)cc2nn1-c1ccc(C)cn1 [Compound 17] , please.
0.1 to 0.49 µM

May I ask what EC50 has been recorded for CNC(=O)c1c2cc(C3CC3)c(N(C)S(C)(=O)=O)cc2nn1-c1ccccn1 [Compound 14] ?
0.1 to 0.49 µM

Name the reported EC50 value associated with the compound CNC(=O)c1c2cc(C3CC3)c(N(CCC3COC3C)S(C)(=O)=O)cc2nn1-c1ccc(C)cn1 (stereo not shown) [Compound 10]
< 0.1 µM

For the compound shown here, CNC(=O)c1c2cc(C3CC3)c(N(CC(F)F)S(C)(=O)=O)cc2nn1-c1ccc(C)cn1 [Compound 3] , give the reported EC50.
< 0.1 µM

Recorded EC50 of CNC(=O)c1c2cc(C3CC3)c(N(CCF)S(C)(=O)=O)cc2nn1-c1ccc(C)cn1 [Compound 7] , please.
< 0.1 µM

Given the entry CCN(c1cc2nn(-c3ccc(C)cn3)c(C(=O)NC)c2cc1C1CC1)S(C)(=O)=O [Compound 5] , report its measured EC50.
< 0.1 µM

Dear colleague, I am looking for the recorded EC50 of the following compound: CCN(c1cc2nn(-c3ccc(Cl)cn3)c(C(=O)NC)c2cc1C1CC1)S(C)(=O)=O [Compound 8]
< 0.1 µM

Can you look up the measured EC50 of CNC(=O)c1c2cc(C3CC3)c(N(C)S(C)(=O)=O)cc2nn1-c1cc(C)c(Cl)cn1 [Compound 15] for me?
0.1 to 0.49 µM
